assay notes: growth inhibitors of H69AR lung tumor, primary screen, human, duplicate replicates (AID 580);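 note: 100% = mean luminescence of untreated wells and 0% = no signal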
recorded conditions: H69AR lung tumor cells viability, ATP luminescence, 72 h; at 10 µM; active compounds read low
property: viability (%)

• Cc1cccc(C2c3c(n(C)c(=O)n(C)c3=O)N=C3c4ccccc4C(=O)C32)c1 (stereo not drawn) = 24.3
• CCCCN(c1ccccc1)S(=O)(=O)c1ccc2c(c1)CCN2C(=O)CCC(=O)O = 91.9
• CCc1cccc2c(=O)c(C(=O)NCCN3CCOCC3)c[nH]c12 = 108
• COc1ccccc1NC(=O)c1nnn(CC(=O)Nc2ccccc2)c1N = 90.7
• Cc1cc(Nc2ccc(C(=O)O)cc2)n2nc(C)nc2n1 = 109
• Cc1ccc2c(c1)CCCN2C(=O)Nc1ccc2c(c1)OCO2 = 89.5
• Cc1csc(NC(=O)c2ccco2)n1 = 83.3
• CCC(C)(C)n1nnnc1C(c1ccc(OC)c(OC)c1)N1CCN(c2ccc(F)cc2)CC1 (stereo not drawn) = 85.8
• Cc1cccc(Nc2nc3c(c(=O)n(C)c(=O)n3C)n2Cc2ccccc2)c1 = 96.6
• CCOc1ccc2[nH]c(=O)c(C(c3nnnn3CC3CCCO3)N3CCc4ccccc4C3)cc2c1 (stereo not drawn) = 85.8
• CN(C)CCCNC(=O)c1ccc(CN(c2ccccc2)S(C)(=O)=O)cc1 = 92.1
• COc1ccc(S(=O)(=O)N(C)CC(=O)N2CCCCC2)cc1Cl = 93.5
• N#Cc1c(N)n(CCNC(=O)c2cccs2)c2nc3ccccc3nc12 = 90.9
